Taken from ChEMBL document CHEMBL3988442.

For each record, write down the corresponding Percent Effect.
Molecular target: Ubiquitin-activating enzyme e1, putative (Leishmania donovani (strain BPK282A1)) (UniProt E9BSI1)
Sequence (whole entry): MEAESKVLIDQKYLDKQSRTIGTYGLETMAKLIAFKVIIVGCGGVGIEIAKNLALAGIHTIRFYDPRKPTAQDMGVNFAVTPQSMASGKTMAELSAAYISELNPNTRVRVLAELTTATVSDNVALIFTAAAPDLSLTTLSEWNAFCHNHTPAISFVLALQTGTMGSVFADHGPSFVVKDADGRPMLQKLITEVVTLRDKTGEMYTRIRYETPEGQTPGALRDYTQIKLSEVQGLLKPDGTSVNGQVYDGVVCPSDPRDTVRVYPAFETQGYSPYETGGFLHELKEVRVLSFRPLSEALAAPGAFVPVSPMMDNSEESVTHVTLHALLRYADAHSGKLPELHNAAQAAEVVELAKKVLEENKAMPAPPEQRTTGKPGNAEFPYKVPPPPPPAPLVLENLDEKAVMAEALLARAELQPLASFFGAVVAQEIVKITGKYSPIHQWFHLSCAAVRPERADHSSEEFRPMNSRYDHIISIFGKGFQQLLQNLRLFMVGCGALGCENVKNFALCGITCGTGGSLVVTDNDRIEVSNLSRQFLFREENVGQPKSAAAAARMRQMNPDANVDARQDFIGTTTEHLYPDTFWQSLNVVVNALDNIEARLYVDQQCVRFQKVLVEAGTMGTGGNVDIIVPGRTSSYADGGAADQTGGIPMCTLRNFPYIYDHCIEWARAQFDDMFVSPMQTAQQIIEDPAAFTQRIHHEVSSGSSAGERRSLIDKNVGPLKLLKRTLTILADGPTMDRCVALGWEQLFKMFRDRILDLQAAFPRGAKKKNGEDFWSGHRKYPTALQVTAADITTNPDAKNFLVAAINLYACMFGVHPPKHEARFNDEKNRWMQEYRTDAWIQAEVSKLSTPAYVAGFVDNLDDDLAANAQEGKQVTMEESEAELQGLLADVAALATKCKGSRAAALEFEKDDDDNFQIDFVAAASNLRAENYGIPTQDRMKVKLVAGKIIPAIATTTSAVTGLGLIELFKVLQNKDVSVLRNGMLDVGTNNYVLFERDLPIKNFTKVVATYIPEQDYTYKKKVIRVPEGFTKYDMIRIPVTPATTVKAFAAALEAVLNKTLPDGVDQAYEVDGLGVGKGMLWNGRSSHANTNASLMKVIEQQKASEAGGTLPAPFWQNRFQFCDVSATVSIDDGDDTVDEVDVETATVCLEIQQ
Test: Leishmania donovani Ubiquitin Activating Enzyme (LdE1)
Type: functional
Parameters: scale not given: direction of the effect not stated beside the values
Details: 30 µM
Potency and affinity values are given separately.
Numbers only, in %.

Examples from the recorded data:
1) CS(=O)(=O)NC1CCCN(C(=O)NCc2cc[nH]n2)C1 (stereo unspecified)    -31.2
2) CCN1CCCC1CN(CCN(C)C)S(=O)(=O)c1ccc(C#N)cc1 (stereo unspecified)    5.48
3) Cc1nsc(NC(=O)N2CCN(Cc3ccc(F)cc3)C(=O)C2)n1    -10.8
4) COc1cccc2c1OCC(NC(=O)NC1CCN(C3CC3)CC1)C2 (stereo unspecified)    0

// each listed molecule needs a value for Percent Effect
1. Cc1cnn(CC2CCCN2Cc2coc(-c3ccccc3)n2)c1 (stereo unspecified)
2. NC(=O)c1cccc(CC2CCN(C(=O)CO)C2)c1 (stereo unspecified)

1. -11
2. 19.2
